- TEST_DETAILS: qHTS for Inhibitors of TGF-b: Cytotox Counterscreen
- RUN_PARAMETERS: HepG2 CAGA-GFP viability, ATP luminescence, 18 h; series mostly up to 46.1 µM
Hit rate of the full screen: of about 410,000 compounds, about 3,100 (0.76%) were called active. Calls come from the whole dose curve; as a rule, active = well fitted cell-killing curve with a large enough effect; inactive = no such curve, though single readings can be large or run the other way. The entries come from a sample that favours actives as a whole.
Pick from active, inactive when you respond.

Worked examples follow.
- MOLECULE: "Cc1cccc(NC(=O)c2ccc([N+](=O)[O-])o2)c1"
  ANSWER_LABEL: "active"
- MOLECULE: "Cc1cccc(NC(=O)c2ccc(COc3ccccc3[N+](=O)[O-])o2)n1"
  ANSWER_LABEL: "inactive"
- MOLECULE: "COc1cccc(CC2(CO)CCN(Cc3cnc(-c4cccc(C)c4)nc3)CC2)c1"
  ANSWER_LABEL: "inactive"
- MOLECULE: "CCc1cccc(NC(=O)c2cc(-c3ccccc3)n[nH]2)c1"
  ANSWER_LABEL: "inactive"
- MOLECULE: "CCC(C)CN1CCC(CO)(Cc2ccccc2Cl)CC1 (configuration not stated)"
  ANSWER_LABEL: "inactive"

Could you check what this test reported for `C/C(=N\NC(=O)CC(C)C)c1c(C(F)(F)F)[nH]n(-c2nc3ccccc3s2)c1=O` ?
active

Same lookup for `O=C(c1cnn2c1NC(=C1CC1)C=C2C(F)F)N1CCc2ccccc2C1` , please.
inactive

Same lookup for `COc1cccc(CNC(=O)c2ccc3c(c2)N(Cc2ccc(C(F)(F)F)cc2)C(=O)c2ccccc2S3)c1OC` , please.
inactive

Same lookup for `O=C(NCc1nnnn1-c1ccc(Cl)cc1)c1ccc([N+](=O)[O-])o1` , please.
inactive

Same lookup for `O=C(COc1ccccc1C(=O)Nc1ccccc1)Nc1cccc(F)c1` , please.
inactive

Same lookup for Cc1cc(C)cc(OC(C)C(=O)Nc2nc3c(s2)CCCC3)c1 (configuration not stated) , please.
inactive

Same lookup for `Fc1ccc(CSc2nc(NCc3ccccc3)c3ccccc3n2)cc1` , please.
inactive

Same lookup for `CCc1ccc(CNC(=O)C2CCN(c3nnc(C)c4c(C)n(-c5ccc(C)cc5)nc34)CC2)cc1` , please.
inactive

Same lookup for COc1ccc(CS(=O)/C(Cl)=C(/Cl)C(=O)Nc2ccc(OC)nc2)cc1 (configuration not stated) , please.
active

Same lookup for `Fc1ccc(-c2nc(Nc3cccc(Cl)c3)nc3c2COc2ccccc2-3)cc1` , please.
inactive

Same lookup for COc1cccc(CNC(=O)C(=O)NCC(c2cccs2)S(=O)(=O)c2ccccc2)c1 (configuration not stated) , please.
inactive

Same lookup for `COc1ccc(CCC(=O)NCCc2csc(-c3ccc(Cl)cc3)n2)cc1` , please.
inactive

Same lookup for CCC(C)Cn1c(O)cc2nn(-c3nc4ccccc4s3)c(=O)c-2c1C (configuration not stated) , please.
inactive

Same lookup for `COc1ccc(NC(=O)C(=O)NCc2ccco2)cc1` , please.
inactive

Same lookup for `Cc1cccc(NC(=O)CCn2c(=O)oc3ccccc32)c1` , please.
inactive

Same lookup for `O=C(Nc1ccc(Br)cn1)c1ccc([N+](=O)[O-])o1` , please.
active

Same lookup for `O=C(CCl)Nc1cccc(CP(=O)(c2ccccc2)c2ccccc2)c1` , please.
active

---

- TEST_DETAILS: qHTS for Inhibitors of TGF-b: Cytotox Counterscreen
- RUN_PARAMETERS: HepG2 CAGA-GFP viability, ATP luminescence, 18 h; series mostly up to 46.1 µM
Out of some 410,000 compounds screened, about 3,100 (0.76%) were called active. The call rests on the fitted dose curve; in most records, active means well fitted cell-killing curve with a large enough effect; inactive means no such curve, though single readings can be large or run the other way. The sample holds actives, similar compounds and a random draw of the others, so the mix is not that of the screen.
Pick from active, inactive when you respond.

Worked examples follow.
- MOLECULE: "Cc1oc2ncn(CC(C)C)c(=O)c2c1C(=O)N1CCN(c2ccccc2F)CC1"
  ANSWER_LABEL: "inactive"
- MOLECULE: "Cc1ccc(CN2CCC(CNC(=O)c3cnn(-c4ccccc4Cl)c3C3CCN(C(=O)OC(C)(C)C)CC3)CC2)cc1"
  ANSWER_LABEL: "active"
- MOLECULE: "CCOc1ccc(-c2nonc2NC(=O)c2oc3ccc(C)cc3c2C)cc1OCC"
  ANSWER_LABEL: "inactive"

Could you check what this test reported for `CO[C@H]1O[C@@H]2O[C@@]3(C)CC[C@@H]4[C@@H](C)CC[C@@H]([C@H]1C)[C@@]24OO3` ?
inactive

---

- TEST_DETAILS: qHTS for Inhibitors of TGF-b: Cytotox Counterscreen; note: potency is the fitted concentration of half-maximal effect
- RUN_PARAMETERS: HepG2 CAGA-GFP viability, ATP luminescence, 18 h; series mostly up to 46.1 µM
Among all 410,000 compounds or so, about 3,100 (0.76%) were called active. Many of the other results were omitted from the sample, so actives are more common in it than they were.
EXPERIMENTAL_ENDPOINT: Potency

Past entries and their recorded results:
- MOLECULE: "CC(C)(C)C1CCC(NC(=O)c2cnn3c2NC(=C2CC2)C=C3C(F)F)CC1 (centres undefined)"
  Potency: "inactive"
- MOLECULE: "CCC(=O)c1ccc(N2CCN(C(=O)c3cc([N+](=O)[O-])ccc3F)CC2)c(F)c1"
  Potency: "inactive"
- MOLECULE: "O=S(=O)(N1CCOCC1)N1CCN(c2ccccc2F)CC1"
  Potency: "inactive"
- MOLECULE: "Cc1cc2oc3ccc(NCCC4CCCN4C)cc3c(=O)c2cc1C (centres undefined)"
  Potency: "10 µM (active)"
- MOLECULE: "Cc1nnc(NC(=O)CSc2nccn2-c2cccc(C)c2C)s1"
  Potency: "inactive"
- MOLECULE: "CC(NC(=O)CCc1cn(Cc2ccccc2Cl)c2ccccc12)c1ccccc1 (centres undefined)"
  Potency: "inactive"

Would you kindly share the measured Potency for `Cc1cc(N2CCN(c3cccc(C(F)(F)F)c3)CC2)n2nc(-c3ccccc3)nc2n1` ?
inactive

Same lookup for `Cn1nnnc1SCc1cc(=O)[nH]c2ccccc12` , please.
inactive

Same lookup for `Cc1onc(C(=O)Nc2ccc3c(c2)OCO3)c1[N+](=O)[O-]` , please.
inactive

Same lookup for `CC(C)(C)OC(=O)N1CCC(c2c(C(=O)NCc3ccccn3)cnn2-c2ccc(F)cc2)CC1` , please.
inactive

Same lookup for `CNS(=O)(=O)c1ccc(NC(=O)Nc2ccc3c(c2)OCO3)cc1` , please.
inactive

Same lookup for CCCn1c(=N)n(CC(O)COc2ccccc2OC)c2ccccc21 (centres undefined) , please.
inactive

Same lookup for OC(Cc1ccc2ccccc2n1)c1ccc(Cl)c(Cl)c1 (centres undefined) , please.
inactive

---

- TEST_DETAILS: qHTS for Inhibitors of TGF-b: Cytotox Counterscreen
- RUN_PARAMETERS: HepG2 CAGA-GFP viability, ATP luminescence, 18 h; series mostly up to 46.1 µM
Screen size: about 410,000 compounds; about 3,100 (0.76%) were called active. Calls come from the whole dose curve; as a rule, active = well fitted cell-killing curve with a large enough effect; inactive = no such curve, though single readings can be large or run the other way. The list comes from a sample in which actives are over-represented; it also holds close analogues and randomly drawn compounds.
Pick from active, inactive when you respond.

Worked examples follow.
- COMPOUND: "O=C(Nc1cc(C(F)(F)F)ccc1Cl)c1ccc2c(c1)CCN2S(=O)(=O)c1ccccc1"
  ANSWER_LABEL: "inactive"
- COMPOUND: "COc1ccccc1-c1ccnc2[nH]n(-c3ccccc3)c(=O)c12"
  ANSWER_LABEL: "inactive"
- COMPOUND: "COc1ccc(CCNCc2c(-c3ccccc3)n(C)c3ccccc23)cc1"
  ANSWER_LABEL: "active"
- COMPOUND: "Cc1cc(F)ccc1NS(=O)(=O)c1ccc(-n2cccn2)cc1"
  ANSWER_LABEL: "inactive"
- COMPOUND: "CCCCC(O)(CCCC)C(=O)NN(C(=O)CCl)c1ccccc1"
  ANSWER_LABEL: "inactive"
- COMPOUND: "Cc1ccccc1CN1CCC(CNC(=O)c2cc3ccc4cccnc4c3[nH]2)CC1"
  ANSWER_LABEL: "active"
- COMPOUND: "CC(=O)OCC(NC(=O)C(Cc1ccccc1)NC(=O)OC(C)(C)C)C1OC(n2ccc(=O)[nH]c2=O)C(OC(C)=O)C1OC(C)=O (stereo not given)"
  ANSWER_LABEL: "inactive"
- COMPOUND: "CCOC(=O)c1c(C)[nH]c(C)c1S(=O)(=O)N(C)CC(=O)N1CCN(c2ccccc2)CC1"
  ANSWER_LABEL: "inactive"

Could you check what this test reported for `CCCC(O)(CCC)C(=O)NN(C(=O)CCl)c1cccc(C)c1` ?
active

Same lookup for `CCOC(=O)c1c(C)[nH]c2c1-c1ccccc1C(=O)C2=O` , please.
active

---

- TEST_DETAILS: qHTS for Inhibitors of TGF-b: Cytotox Counterscreen
- RUN_PARAMETERS: HepG2 CAGA-GFP viability, ATP luminescence, 18 h; series mostly up to 46.1 µM
The whole screen tested about 410,000 compounds, of which about 3,100 (0.76%) were called active. The call rests on the fitted dose curve; in most records, active means well fitted cell-killing curve with a large enough effect; inactive means no such curve, though single readings can be large or run the other way. This excerpt belongs to a sample that is enriched for actives.
Pick from active, inactive when you respond.

Could you check what this test reported for `CN(C)c1ccc(/C=C/c2sc3ccccc3[n+]2C)cc1` ?
inactive

Same lookup for `CC1(C)C=Cc2c(ccc(C(=O)/C=C/c3ccccc3)c2O)O1` , please.
inactive

Same lookup for CCOC(=O)C1CCC(CN(Cc2ccc(OC)cc2)S(=O)(=O)c2ccc(F)c(C(=O)Nc3cc(C)ccc3C)c2)CC1 (stereo not given) , please.
inactive

Same lookup for `COc1cc(OC)c(/C=C/c2ccnc3ccccc23)c(OC)c1` , please.
inactive

Same lookup for `O=c1cc2nc(-c3ccccc3)nc(SCCOc3ccc(Cl)cc3)n2[nH]1` , please.
inactive

Same lookup for `COc1cccc(CNCCc2c[nH]c3ccccc23)c1OCc1ccccc1F` , please.
active

Data origin: PubChem BioAssay AID588856
